A compilation of IC50 values for Protein arginine N-methyltransferase 5 (Homo sapiens, UniProt O14744) from the published literature.

Example molecules with recorded IC50:
In [3]: df
Out[3]:
                                smiles_data     result_value
0  Cc1cc(C)c(CNC(=O)c2cc(-c3cccc(CNCCN)c3)nc3c2cnn3C(C)C)c(=O)[nH]1         49000 nM
1  Nc1ncnc2c1ccn2[C@@H]1C=C(COc2cc(C(F)F)cc3c2CNCC3)[C@@H](O)[C@H]1O  0.25 to 0.95 nM

molecule "C[C@H]1COc2cc3ccc(CC[C@H]4C[C@@H](n5ccc6c(N)ncnc65)[C@H](O)[C@@H]4O)cc3nc2N1" , IC50 observed: < 1 nM

molecule "Cn1ccc(-c2cn(-c3cncc(COc4ccc5ccc(N6CC(N)C6)nc5c4)c3)c3ncnc(N)c23)n1" , IC50 observed: > 1000 nM

molecule "C[C@H]1Cc2cc3ccc(CC[C@H]4C[C@@H](n5ccc6c(N)ncnc65)[C@H](O)[C@@H]4O)cc3nc2N1" , IC50 observed: < 1 nM

molecule "Nc1nc2cc(CCC3=C[C@@H](n4ncc5c4ncn4ccnc54)[C@H](O)[C@@H]3O)cc(F)c2cc1Cl" , IC50 observed: > 0.95 nM
